Collected cAMP Rel EC50, nM (1% HSA) values appear next to each entry.
Target: T1, human GIP receptor (human) (UniProt P48546)
T1 sequence (looked up): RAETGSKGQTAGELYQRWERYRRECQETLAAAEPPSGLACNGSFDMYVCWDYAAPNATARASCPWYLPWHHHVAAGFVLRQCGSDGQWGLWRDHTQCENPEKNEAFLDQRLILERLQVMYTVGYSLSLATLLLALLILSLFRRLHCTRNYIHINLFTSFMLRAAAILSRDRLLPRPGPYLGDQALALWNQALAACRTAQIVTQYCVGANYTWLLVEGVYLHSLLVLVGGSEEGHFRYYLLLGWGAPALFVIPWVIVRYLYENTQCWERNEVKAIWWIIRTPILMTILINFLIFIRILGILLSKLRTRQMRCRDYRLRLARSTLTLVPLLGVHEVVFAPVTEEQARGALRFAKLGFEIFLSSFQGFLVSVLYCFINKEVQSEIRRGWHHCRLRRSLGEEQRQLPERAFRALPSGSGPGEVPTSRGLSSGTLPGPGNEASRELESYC
Experiment: cell-based or functional assay

Worked cases, cAMP Rel EC50, nM (1% HSA) given:
Ask: Quickly give me recorded cAMP Rel EC50, nM (1% HSA) for YXQGTFTSDFSQXLDXKAQXAFIEXLLEAGPSSGAPPPSGSEEE (Aib, αMeL, Orn, Me4Pal; acylated K; C-terminal amide; synthetic construct; SITE 2: note = 2-Aminoisobutyric Acid; SITE 13: note = alpha-methyl-leucine; SITE 16: note = L-ornithine; SITE 17: note = Lysine is chemically modified through conjugation of the epsilon-amino group of the Lysine side chain with (gamma-Glu)2-CO-(CH2)16-CO2H; SITE 20: note = 2-Am) [Example 1040]
Result: 20.8 nM

Ask: Quickly give me recorded cAMP Rel EC50, nM (1% HSA) for YXQGTFTSDFSQXLDKKAQXAFIEYLIEXGESSGAPPPSGE (acylated; synthetic construct; SITE 2: note = 2-Aminoisobutyric Acid; SITE 13: note = alpha-methyl-leucine; SITE 17: note = Lysine is chemically modified through conjugation of the epsilon-amino group of the Lysine side chain with (2-[2-(2-Amino-ethoxy)-ethoxy]-acetyl)-(gamma-Glu)-CO-(CH2) 16-CO2H; SITE 20: n) [Example 233]
Result: 28.1 nM

Ask: Quickly give me recorded cAMP Rel EC50, nM (1% HSA) for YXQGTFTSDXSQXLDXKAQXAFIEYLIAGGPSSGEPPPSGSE (non-natural residues; lipidated Lys; C-terminal amide; synthetic construct; SITE 2: note = 2-Aminoisobutyric Acid; SITE 10: note = 3-(4-Pyridyl)-L-alanine; SITE 13: note = alpha-methyl-leucine; SITE 16: note = L-ornithine; SITE 17: note = Lysine is chemically modified through conjugation of the epsilon-amino group of the Lysine side chain with (gamma-Gl)) [Example 1008]
Result: 15.2 nM

Ask: Quickly give me recorded cAMP Rel EC50, nM (1% HSA) for YXQGTFTSDXSQXLDKKAQXAFIEYLIAGGPSSGEPPPSGSGE (non-natural residues; (γGlu)2-C18 diacid acyl; synthetic construct; SITE 2: note = 2-Aminoisobutyric Acid; SITE 10: note = 3-(4-Pyridyl)-L-alanine; SITE 13: note = alpha-methyl-leucine; SITE 17: note = Lysine is chemically modified through conjugation of the epsilon-amino group of the Lysine side chain with (gamma-Glu)2-CO-(CH2)16-CO2H; SITE 20:) [Example 971]
Result: 30.2 nM

Ask: Quickly give me recorded cAMP Rel EC50, nM (1% HSA) for YXQGTXTSDXXIXLDXIAQXXFIEXLIKGGPSSGEPPPE (not fully specified; synthetic construct; SITE 2: note = 2-Aminoisobutyric Acid; SITE 6: note = alpha-methyl-2-fluoro-L-phenylalanine; SITE 10: note = 3-(4-Pyridyl)-L-alanine; SITE 11: note = alpha-methyl-L-serine; SITE 13: note = alpha-methyl-leucine; SITE 16: note = L-ornithine; SITE 20: note = 2-Aminoisobutyric Acid;) [Example 444]
Result: 1.74 nM

Alright, here's another binder for you.
Ask: Quickly give me recorded cAMP Rel EC50, nM (1% HSA) for YXQGTFTSDXSQXLDXKAQXAFIEYLIAGGPSSGAPPPSGSEE (non-natural residues; C18 diacid-(γ-Glu)2 acyl on Lys; C-terminal amide; synthetic construct; SITE 2: note = 2-Aminoisobutyric Acid; SITE 10: note = 3-(4-Pyridyl)-L-alanine; SITE 13: note = alpha-methyl-leucine; SITE 16: note = L-ornithine; SITE 17: note = Lysine is chemically modified through conjugation of the epsilon-amino group of the Lysine side chain with (gamma-Gl)) [Example 1031]
Result: 17.3 nM
